Data origin, for the record: ChEMBL document CHEMBL1150707

assay_explanation: Inhibition of microtubule assembly by turbidimetry
assay_readout: ID50 (µM)
Numbers only, in µM.

# annotated cases, reported ID50 shown
COc1ccc(C[C@@H](O)c2cc(OC)c(OC)c(OC)c2)cc1O	11
COc1ccc(CCc2cc(OC)c(OC)c(OC)c2)c(O)c1O	3
COc1cc2c(c(OC)c1OC)-c1ccc(OC)c(=O)cc1[C@@H](NC(C)=O)CC2	6
COc1cc([C@@H]2c3cc4c(cc3[C@H](O)[C@H]3COC(=O)[C@H]23)OCO4)cc(OC)c1OC	3
COc1ccc(/C=C\c2cc(OC)c(OC)c(OC)c2)c(O)c1O	2

Q) // returns reported ID50 for input COc1cc2c(c(OC)c1OC)-c1cc3c(cc1[C@@H](OC(C)=O)C1COC(=O)[C@H]1C2)OCO3 (stereo partly specified)
A) 6

* * *

Tested on: P388
assay_explanation: In vivo cytotoxicity against mouse P388 cells
Assay type: functional
Calls of active or inactive are those of the source. The rule behind the calls is not given here.
assay_readout: ED50

COc1cc(/C=C/c2ccc(OC)c(O[Si](C)(C)C(C)(C)C)c2O[Si](C)(C)C(C)(C)C)cc(OC)c1OC	inactive
COc1cc(/C=C/c2ccc(OC)c(OC(C)=O)c2OC(C)=O)cc(OC)c1OC	12 µg/mL
COc1cc(/C=C\c2ccc(OC)c(O[Si](C)(C)C(C)(C)C)c2O[Si](C)(C)C(C)(C)C)cc(OC)c1OC	inactive
COc1ccc(/C=C\c2cc(OC)c(OC)c(OC)c2)c(O)c1O [COMBRETASTATIN A-1]	0.99 µg/mL

Consider now this further molecule.
Q) // returns reported ED50 for input COc1cc(/C=C\c2ccc(OC)c(OC(C)=O)c2OC(C)=O)cc(OC)c1OC
A) 2.7 µg/mL
